# Tested on: RPMI-8226 leukemia
# Assay Procedure: NCI-60 one-dose screen, 48 h
# Stated Conditions: 10 µM unless noted
About 83,000 compounds went through this panel and 20% of them were active in at least one assay; those are over-represented in the sample as a whole. The source made the active and inactive calls. Rule for the calls: active = growth percent below 10; inactive = the rest.
Please state which outcome applies, choosing from 1 (yes) for active, 0 (no) for inactive

## Task Test call for this molecule, please: `O=c1c2cnn(-c3ccccc3)c2n2c(CN3CCOCC3)nnc2n1-c1ccccc1`
## Result 0 (no)

## Task Test call for this molecule, please: `CCn1cc(C(=O)NNC(=S)Nc2ccc(C)cc2)c(=O)c2ccc(C)nc21`
## Result 0 (no)

## Task Test call for this molecule, please: `CCOC(=O)C#Cc1c(C(=O)OCC)nnn1Cc1ccc([N+](=O)[O-])cc1`
## Result 0 (no)

More entries:
## Task Test call for this molecule, please: CC(=O)N1N=C(c2ccc(C(F)(F)F)c(F)c2)CC1c1[nH]c(C)c(C(=O)NCC(F)(F)F)c1C (stereo not given)
## Result 0 (no)

## Task Test call for this molecule, please: CN(C)CCNC(=O)c1ccc(-c2nc3ccc4[nH]ncc4c3c3c2C2CCC3C2)cc1 (stereo not given)
## Result 1 (yes)

## Task Test call for this molecule, please: `C=C1C(=O)O[C@H]2[C@H]1CC/C(Cn1cc(-c3ccccc3)nn1)=C\CC[C@@]1(C)O[C@@H]21`
## Result 1 (yes)

## Task Test call for this molecule, please: `CNC(=O)c1[nH]cc(-c2ccc(OC)cc2)c1-c1cc(OC)c2c(c1OC)OCO2`
## Result 0 (no)

## Task Test call for this molecule, please: `C=CCN=c1sc2c(n1NC(=O)c1cc3ccc1CCc1ccc(cc1)CC3)C(=O)c1ccccc1C2=O`
## Result 1 (yes)

## Task Test call for this molecule, please: `Clc1ccc(/C=N\N=C\c2ccc(Cl)c(Cl)c2)cc1Cl`
## Result 0 (no)

## Task Test call for this molecule, please: C1CCC([PH+](C2CCCCC2)C2CCCCC2[PH+](C2CCCCC2)C2CCCCC2)CC1.[Au].[CH-]1CCCCC1C1CCCC[N-]1 (stereo not given)
## Result 1 (yes)

## Task Test call for this molecule, please: `CC(C)c1ccc(C(=O)Nc2nc3ccc(O)c(CN(C)C)c3s2)cc1`
## Result 0 (no)

## Task Test call for this molecule, please: `Cn1ccnc1C(=O)/C=C/c1ccc(CC(=O)Nc2cc(C(F)(F)F)cc(C(F)(F)F)c2)cc1`
## Result 0 (no)

## Task Test call for this molecule, please: CC1CCc2c(C(=O)Nc3ncc(Cc4cccc([N+](=O)[O-])c4)s3)csc2C1 (stereo not given)
## Result 0 (no)

## Task Test call for this molecule, please: `COc1ccc2cc1Oc1ccc(cc1)C[C@H]1c3c(cc4c(c3Oc3cc5c(cc3OC)CCN(C)[C@@H]5C2)OCO4)CCN1C`
## Result 0 (no)

## Task Test call for this molecule, please: `O=C(NNC(=O)c1ccc(NC(=O)c2ccccn2)cc1)Nc1ccc([N+](=O)[O-])cc1`
## Result 0 (no)

## Task Test call for this molecule, please: COc1cc(C2c3cc(OC(C)=O)c(OC)cc3CC3C(=O)OCC32)ccc1OC(C)=O (stereo not given)
## Result 0 (no)
